Entries and their % inhib 10^−7 M, affinity for the α1-subunit of the GABAA receptor values follow.
test system: α1-GABAA receptor; assay: Ligand-binding assay, radiolabeled flumazenil competition, cerebellum membranes; conditions: 10^−7 M; rat cerebellum membranes; radiolabeled flumazenil 1 nM
Write the value in % as a bare number.

Example results:
In [3]: df
Out[3]:
                                   compound  units_of_measure  recorded_value
0  Cc1ccc(-c2nc3ccc(C)nn3c2CC(=O)Nc2ccccc2)cc1                 %            75.9
1  COc1ccc(-c2nc3ccc(OC)nn3c2CC(=O)N2CCCCC2)cc1                 %            26.5
2  Cc1ccc(-c2nc3ccc(C)nn3c2CC(=O)NC2CCCC2)cc1                 %            45.8
3  COc1ccc(-c2nc3ccc(C)nn3c2CC(=O)N2CCCCC2)cc1                 %            76.5
4  Cc1ccc(-c2nc3ccc(C)cn3c2CC(=O)N(C)C)cc1 [zolpidem, reference compound]                 %            73.6

So what % inhib 10^−7 M, affinity for the α1-subunit of the GABAA receptor did Cc1ccc(-c2nc3ccc(C)nn3c2CC(=O)Nc2nccs2)cc1 get with α1-GABAA receptor?
97.6

Now try Cc1ccc(NC(=O)Cc2c(-c3ccc(C)cc3)nc3ccc(C)nn23)cc1 .
57.2

Next entry: CCCN(CCC)C(=O)Cc1c(-c2ccccc2)nc2ccc(C)nn12
97.5

Consider next the compound Cc1ccc(-c2nc3ccc(C)nn3c2CC(=O)Nc2ccccn2)cc1 in the same way.
83.9

---

Entries annotated with measured % inhib 10^−5 M, affinity for the α1-subunit of the GABAA receptor
system: α1-GABAA receptor; assay: Ligand-binding assay, radiolabeled flumazenil competition, cerebellum membranes; details: 10^−5 M; rat cerebellum membranes; radiolabeled flumazenil 1 nM
Just the number please, in %, no unit attached.

>>> df
                                   molecule  units_of_measure  recorded_value
0  COc1ccc2nc(-c3ccc(F)cc3)c(CC(=O)N3CCCCC3)n2n1                 %            99.5
1  Cc1ccc(-c2nc3ccc(C)nn3c2CC(=O)Nc2ccccc2)cc1                 %            99.5
2  Cc1ccc(-c2nc3ccc(C)nn3c2CC(=O)Nc2nccs2)cc1                 %            99.6

Using the record for CCOc1ccc2nc(-c3ccc(F)cc3)c(CC(=O)N3CCCCC3)n2n1 , report its % inhib 10^−5 M, affinity for the α1-subunit of the GABAA receptor.
98.9

What do you have for Cc1ccc(NC(=O)Cc2c(-c3ccc(C)cc3)nc3ccc(C)nn23)cc1 ?
99.3

Next entry: CCOc1ccc2nc(-c3ccc(F)cc3)c(CC(=O)N(CC)CC)n2n1
98.3

Also check CCCN(CCC)C(=O)Cc1c(-c2ccccc2)nc2ccc(OC)nn12
100.0

Could you do the same for Cc1ccc(-c2nc3ccc(C)nn3c2CC(=O)NN2CCOCC2)cc1 , please?
98.8

Another molecule to check: Cc1ccc(-c2nc3ccc(C)nn3c2CC(=O)NC2CCCC2)cc1
99.1

Try the molecule COc1ccc(-c2nc3ccc(C)nn3c2CC(=O)N2CCCCC2)cc1
99.9

Same again, this time with CCN(CC)C(=O)Cc1c(-c2ccc(OC)cc2)nc2ccc(C)nn12
99.9

---

system: α1-GABAA receptor; test: Ligand-binding assay, radiolabeled flumazenil competition, cerebellum membranes; conditions: 10^−5 M; rat cerebellum membranes; radiolabeled flumazenil 1 nM
# % inhib 10^−5 M, affinity for the α1-subunit of the GABAA receptor per record follows
Kindly answer with a numeric value in %, unit omitted.

In the examples that follow, each entry is paired with its recorded % inhib 10^−5 M, affinity for the α1-subunit of the GABAA receptor.
>>> print(df.to_string())
                            molecule_smiles     assayed_system  recorded_value
0  CCCN(CCC)C(=O)Cc1c(-c2ccc(F)cc2)nc2ccc(OCC)nn12  α1-GABAA receptor            99.5
1  COc1ccc(-c2nc3ccc(OC)nn3c2CC(=O)N2CCCCC2)cc1  α1-GABAA receptor            98.3
2  Cc1ccc(-c2nc3ccc(C)nn3c2CC(=O)NN2CCCCC2)cc1  α1-GABAA receptor            99.5

Continue with the next compound.
Look up % inhib 10^−5 M, affinity for the α1-subunit of the GABAA receptor: Cc1ccc(-c2nc3ccc(C)nn3c2CC(=O)Nc2ccc3ccccc3n2)cc1
100.1

---

This listing pairs compounds with measured % inhib 10^−7 M, affinity for the α2-subunit of the GABAA receptor.
test system: α2-GABAA receptor; assay: Ligand-binding assay, radiolabeled flumazenil competition, spinal cord membranes; conditions: 10^−7 M; rat spinal cord membranes; radiolabeled flumazenil 1 nM
Kindly answer with a numeric value in %, unit omitted.

In [3]: df
Out[3]:
                                   compound  recorded_value
0  COc1ccc(-c2nc3ccc(C)nn3c2CC(=O)N2CCCCC2)cc1            20.6

Next compound, % inhib 10^−7 M, affinity for the α2-subunit of the GABAA receptor to be filled in.
Given Cc1ccc(-c2nc3ccc(C)cn3c2CC(=O)N(C)C)cc1 [zolpidem, reference compound] , state its recorded % inhib 10^−7 M, affinity for the α2-subunit of the GABAA receptor.
19.9

---

inhibition in vivo at 98 µmol/kg overview
system: male CD1 mice; assay: In vivo predictive sedation-hypnosis test (traveled distance); settings: Mus musculus, ip, 0.5 h, 98.0 μmol/kg intraperitoneal, traveled distance over 30 min versus control, read-out: % inhib motor activity
Express the reported value numerically, then name its unit.

>>> df
                            molecule_smiles                     quantity_kind  recorded_value
0  CCCN(CCC)C(=O)Cc1c(-c2ccc(OC)cc2)nc2ccc(C)nn12  inhibition in vivo at 98 µmol/kg             96%
1  Cc1ccc(-c2nc3ccc(Cl)nn3c2CC(=O)N2CCCC2)cc1  inhibition in vivo at 98 µmol/kg           96.9%
2  Cc1ccc(-c2nc3ccc(C)nn3c2CC(=O)N(C(C)C)C(C)C)cc1  inhibition in vivo at 98 µmol/kg           90.8%
3  Cc1ccc(-c2nc3ccc(C)nn3c2CC(=O)Nc2ccccn2)cc1  inhibition in vivo at 98 µmol/kg           88.5%
4  Cc1ccc2nc(-c3ccc(Br)cc3)c(CC(=O)N3CCOCC3)n2n1  inhibition in vivo at 98 µmol/kg           95.6%

Which inhibition in vivo at 98 µmol/kg is listed for Cc1ccc(-c2nc3ccc(C)nn3c2CC(=O)Nc2ccc3ccccc3n2)cc1 ?
93.5%

Also check CCCN(CCC)C(=O)Cc1c(-c2ccccc2)nc2ccc(OC)nn12
91.5%

Check CCCN(CC1CC1)C(=O)Cc1c(-c2ccc(C)cc2)nc2ccc(C)nn12 too.
94.2%

---

Items are presented alongside their recorded inhibition in vivo at 98 µmol/kg.
tested on: male CD1 mice; assay: In vivo predictive sedation-hypnosis test (traveled distance); details: Mus musculus, ip, 0.5 h, 98.0 μmol/kg intraperitoneal, traveled distance over 30 min versus control, read-out: % inhib motor activity
A number alone suffices; assume %.

Example results:
                                   molecule                     quantity_kind  units_of_measure  recorded_value
0  COc1ccc(-c2nc3ccc(C)nn3c2CC(=O)N2CCCCC2)cc1 [Example 73]  inhibition in vivo at 98 µmol/kg                 %            94.1
1  CCOc1ccc2nc(-c3ccc(F)cc3)c(CC(=O)N3CCCCC3)n2n1 [Example 67]  inhibition in vivo at 98 µmol/kg                 %            90.8
2  CCCCN(CCCC)C(=O)Cc1c(-c2ccc(F)cc2)nc2ccc(C)nn12 [Example 40]  inhibition in vivo at 98 µmol/kg                 %            91.8
3  Cc1ccc(-c2nc3ccc(C)nn3c2CC(=O)NC2CCCC2)cc1 [Example 91]  inhibition in vivo at 98 µmol/kg                 %              93
4  CCCN(CCC)C(=O)Cc1c(-c2ccccc2)nc2ccc(C)nn12 [Example 35]  inhibition in vivo at 98 µmol/kg                 %            80.6

Item CCCCN(CCCC)C(=O)Cc1c(-c2ccc(OC)cc2)nc2ccc(OC)nn12 [Example 77] has what recorded inhibition in vivo at 98 µmol/kg?
89.3
